assay.explanation: Displacement of [3H]DAMGO from mu opioid receptor in dog brain after 90 mins by scintillation counting
Set-up: species or system Canis lupus familiaris
Measured pKi, listed per entry.
Convention used: pKi is expressed as -log10 of the molar concentration.

# count of solved cases: 3
CCCCCCN1C[C@@H]2[C@H](C1)[C@@]2(C)c1cccc(NS(C)(=O)=O)c1 :: 7.85
CCCCCCN1C[C@@H]2[C@H](C1)[C@@]2(C)c1cccc(NS(=O)(=O)C(C)C)c1 :: 7.85
CCCCCCN1C[C@@H]2[C@H](C1)[C@@]2(CCC)c1cccc(NS(C)(=O)=O)c1 :: 8.00

Now look at this one.
Input line: Requested read-out: pKi. Entry: `CCCCCCN1C[C@@H]2[C@H](C1)[C@@]2(C)c1cccc(NS(=O)(=O)c2cccnc2)c1`
Output line: 7.15

----------
Measured pKi, listed per entry.
target.desc: Mu-type opioid receptor (Homo sapiens, UniProt P35372)
Sequence (P35372 whole entry): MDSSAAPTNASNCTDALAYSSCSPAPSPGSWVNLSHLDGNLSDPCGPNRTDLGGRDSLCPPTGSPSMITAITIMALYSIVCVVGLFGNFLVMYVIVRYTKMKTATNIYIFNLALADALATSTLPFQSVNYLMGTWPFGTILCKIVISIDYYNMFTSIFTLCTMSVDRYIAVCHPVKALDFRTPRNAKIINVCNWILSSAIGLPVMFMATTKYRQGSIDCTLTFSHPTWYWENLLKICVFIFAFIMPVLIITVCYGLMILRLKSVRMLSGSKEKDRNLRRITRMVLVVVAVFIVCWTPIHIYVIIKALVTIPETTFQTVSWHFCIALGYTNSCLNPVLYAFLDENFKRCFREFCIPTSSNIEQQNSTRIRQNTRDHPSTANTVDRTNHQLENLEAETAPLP
assay.explanation: Antagonist activity at human mu opioid receptor by GTP-gamma S binding assay
Convention used: pKi is expressed as -log10 of the molar concentration.

CC[C@]1(c2cccc(NS(C)(=O)=O)c2)[C@@H]2CN(CC(O)Cc3ccccc3)C[C@@H]21 (some centres undefined) :: 8.60
CC[C@]1(c2cccc(NS(C)(=O)=O)c2)[C@@H]2CN(CC3Cc4ccccc4C3O)C[C@@H]21 (some centres undefined) :: 10.10
C[C@]1(c2cccc(NS(C)(=O)=O)c2)[C@@H]2CN(CC3Cc4ccccc4C3)C[C@@H]21 :: 9.52

Now look at this one.
Input line: Requested read-out: pKi. Entry: `C[C@]1(c2cccc(NS(C)(=O)=O)c2)[C@@H]2CN(CCCc3ccccc3)C[C@@H]21`
Output line: 8.46

----------
assay.explanation: Displacement of [3H]U-69,593 from kappa opioid receptor in dog brain after 90 mins by scintillation counting
Set-up: species or system Canis lupus familiaris
assay.endpoint: pKi
Convention used: pKi is expressed as -log10 of the molar concentration.

CCS(=O)(=O)Nc1cccc([C@@]2(C)[C@@H]3CN(CCCc4ccccc4)C[C@@H]32)c1 :: 6.66
CC[C@]1(c2cccc(NS(C)(=O)=O)c2)[C@@H]2CN(CCCc3ccccc3)C[C@@H]21 :: 7.17
CCCCCCN1C[C@@H]2[C@H](C1)[C@@]2(C)c1cccc(NS(C)(=O)=O)c1 :: 6.57
CC[C@]1(c2cccc(NS(C)(=O)=O)c2)[C@@H]2CN(CC3Cc4ccccc4C3)C[C@@H]21 :: 7.66
CCCCCCN1C[C@@H]2[C@H](C1)[C@@]2(C)c1cccc(NS(=O)(=O)C(C)C)c1 :: 6.10

Input line: Requested read-out: pKi. Entry: `CCCCCCN1C[C@@H]2[C@H](C1)[C@@]2(CC)c1cccc(NS(C)(=O)=O)c1`
Output line: 5.87

Input line: And then `CCCCCCN1C[C@@H]2[C@H](C1)[C@@]2(C)c1cccc(NS(=O)(=O)CCOC)c1` , what is it?
Output line: 6.76

----------
assay.explanation: Displacement of [3H]DAMGO from mu opioid receptor in dog brain after 90 mins by scintillation counting
Design: species or system Canis lupus familiaris
assay.endpoint: pKi
Convention used: pKi is expressed as -log10 of the molar concentration.

Input line: Requested read-out: pKi. Entry: CC[C@]1(c2cccc(NS(C)(=O)=O)c2)[C@@H]2CN(CC3Cc4ccccc4C3O)C[C@@H]21 (stereo partly specified)
Output line: 10.15

Input line: And then `CCS(=O)(=O)Nc1cccc([C@@]2(C)[C@@H]3CN(CCCc4ccccc4)C[C@@H]32)c1` , what is it?
Output line: 7.43

Input line: And then `CC[C@]1(c2cccc(NS(C)(=O)=O)c2)[C@@H]2CN(CC3Cc4ccccc4C3)C[C@@H]21` , what is it?
Output line: 9.70

Input line: And then `CCCCCCN1C[C@@H]2[C@H](C1)[C@@]2(C)c1cccc(NS(=O)(=O)CCOC)c1` , what is it?
Output line: 8.00

Input line: And then `CCCCCCN1C[C@@H]2[C@H](C1)[C@@]2(CC)c1cccc(NS(C)(=O)=O)c1` , what is it?
Output line: 7.30

Input line: And then `C[C@]1(c2cccc(NS(C)(=O)=O)c2)[C@@H]2CN(CCCc3ccccc3)C[C@@H]21` , what is it?
Output line: 8.39

Input line: And then `CCCCCCN1C[C@@H]2[C@H](C1)[C@]2(c1cccc(NS(C)(=O)=O)c1)C(C)C` , what is it?
Output line: 8.52

----------
assay.explanation: Displacement of [3H]DAMGO from mu opioid receptor in dog brain after 90 mins by scintillation counting
Parameters: species or system Canis lupus familiaris
assay.endpoint: Ki (nM)
Write the answer as a number in nM, unit excluded.

# count of solved cases: 3
C[C@]1(c2cccc(NS(C)(=O)=O)c2)[C@@H]2CN(CC3Cc4ccccc4C3)C[C@@H]21 :: 0.55
CC[C@]1(c2cccc(NS(C)(=O)=O)c2)[C@@H]2CN(CC(O)Cc3ccccc3)C[C@@H]21 (some centres undefined) :: 2.6
CCCCCCN1C[C@@H]2[C@H](C1)[C@@]2(C)c1cccc(NS(=O)(=O)CCC)c1 :: 104

Input line: Requested read-out: Ki. Entry: `CC[C@]1(c2cccc(NS(C)(=O)=O)c2)[C@@H]2CN(CCCc3ccccc3)C[C@@H]21`
Output line: 1.5

Origin of measurements: ChEMBL document CHEMBL1955785
